Test system: Malme-3M
Assay: NCI tumour cell line growth inhibition, 48 h
Activity calls are given as the source filed them. No stated cut-off is given here; in the data, active = GI50 up to about 1.1 µM and inactive = higher.
Labels: Y for active, N for inactive

# molecule, measured.target, discrete.label
records = [
    ("N#CC(OC1OC(COC2OC(CO)C(O)C(O)C2O)C(O)C(O)C1O)c1ccccc1 (stereo unspecified)", "Malme-3M", "N"),
    ("CC(=O)N(C(C)=O)n1c(Cc2ccc(C)cc2)nn(C(C)=O)c1=O", "Malme-3M", "N"),
    ("CC1(C(=O)O)CCOc2ccccc21 (stereo unspecified)", "Malme-3M", "N"),
    ("Cc1ccc(Oc2ccccc2N)cc1", "Malme-3M", "N"),
    ("Cc1[nH]n(-c2nc(-c3ccccc3)cc(=O)[nH]2)c(=O)c1CCO", "Malme-3M", "N"),
    ("O=C1OC[C@H]2[C@@H]1[C@H]1O[C@@H]2C2=C(CCC2)C1=O", "Malme-3M", "N"),
    ("c1ccc2c(c1)N=C(c1ccc3ccccc3c1)CC(c1cccc3ccccc13)S2 (stereo unspecified)", "Malme-3M", "N"),
    ("CCCCCCCN(CCCCCCC)CC(O)c1cc2ccccc2c2cc(Br)ccc12 (stereo unspecified)", "Malme-3M", "N"),
    ("CCCCCCCCCCCCOCCCCCCCCC/C=C/c1ccc2c(c1)OCCOCCOCCOCCO2", "Malme-3M", "N"),
    ("CN(/N=C/c1cccc2cccnc12)c1ccc([N+](=O)[O-])cc1", "Malme-3M", "N"),
    ("O=P1(Oc2ccc(Cl)cc2Cl)Oc2cc3ccccc3cc2O1", "Malme-3M", "N"),
    ("O=c1oc2ccc(Cl)cc2cc1-c1cn2cc(Cl)ccc2n1", "Malme-3M", "Y"),
    ("CO/N=C(\\C)c1cccc(Nc2nc3ccccc3c3occc23)c1", "Malme-3M", "N"),
    ("Oc1cc(-c2cccc(Br)c2)nc2cc3c(cc12)OCO3", "Malme-3M", "N"),
    ("CN1CCN(c2cc3c(cc2F)c(=O)c(C(=O)O)cn3C2CC2)CC1CC#N (stereo unspecified)", "Malme-3M", "N"),
    ("CC1(C)S[C@@H]2[C@H](NC(=O)C3(N)CCCCC3)C(=O)N2[C@H]1C(=O)O", "Malme-3M", "N"),
    ("CC1OC(O)CC(N(C)C)C1O.CC1OC(O)CCC1O.CCC1CC(O)c2c(O)c3c(c(O)c2C1O)C(=O)c1cccc(O)c1C3=O (stereo unspecified)", "Malme-3M", "Y"),
    ("CCOc1c(Cc2ccccc2)c(=O)n2c3ccccc3n3c(=O)n(C)c(=O)c1c23", "Malme-3M", "N"),
    ("CCOc1cccc2nc3cccc(C(=O)NCCN(C)C)c3nc12", "Malme-3M", "Y"),
    ("C=CCNC(=S)N1c2ccccc2NC(=O)CC1C (stereo unspecified)", "Malme-3M", "N"),
    ("COC(=O)NN1C(C)=C(C(=O)OC)C2(C#N)C(C(=O)OC)=C(C)N(NC(=O)OC)C12N (stereo unspecified)", "Malme-3M", "N"),
    ("CC1CN=C(N(C)C(=O)Nc2ccc(Cl)cc2)S1 (stereo unspecified)", "Malme-3M", "N"),
    ("Cc1nc(O)nc(N/N=C/c2ccc(Cl)cc2)c1C(=O)NC(C)(CO)CO", "Malme-3M", "N"),
    ("COc1ccc(O)c(/C=N/CCC/N=C/c2cc(OC)ccc2O)c1", "Malme-3M", "N"),
    ("CCCCCCCC/C=C1\\CCC(CN2CCOCC2)C1=O (stereo unspecified)", "Malme-3M", "N"),
    ("CCCCCCCCCOC(=S)NCCCCC", "Malme-3M", "N"),
]
